// data source = PubChem BioAssay (NCI)

# Tested on: HOP-62 NSCLC
# test_method_notes: NCI-60 one-dose screen, 48 h (100 = growth as untreated, 0 = no growth, -100 = all killed)
# test_context: 10 µM unless noted
This is part of a sample that, as a whole, favours compounds with a hit. Of some 83,000 tested, about 20% had one in any assay.
Reported growth values are given for each entry in this list.
measured_endpoint: growth (%)

>>> value("c1ccc2c(-c3cnn4cc(-c5ccc(N6CCNCC6)cc5)cnc34)ccnc2c1")
-85.7
>>> value("O=C(O)/C=C/c1cn(-c2ccccc2)nc1-c1ccc(F)cc1")
81.7
>>> value("Nc1n[nH]c2cccc(C#Cc3cccc(C(=O)Nc4ccc(Cl)c(C(F)(F)F)c4)c3)c12")
67.5
>>> value("c1ccc2[nH]c(-c3ccc(-c4nccc5c4[nH]c4ccccc45)cc3)nc2c1")
86.1
>>> value("Cc1nc2ccccc2c(/C=C/c2ccc(Cl)cc2)c1C(=O)/C=C/c1ccccc1")
-36.7

###

# System: HCT-116 colon
# test_method_notes: NCI-60 one-dose screen, 48 h (100 = growth as untreated, 0 = no growth, -100 = all killed)
# test_context: 10 µM unless noted
About 83,000 compounds went through this panel and 20% of them were active in at least one assay; those are over-represented in the sample as a whole.
Label rule, in plain words: growth of 40% and up is t, under 40% is f.

>>> class_name("O=C(/C=C/c1ccc([N+](=O)[O-])cc1)c1cccc(Nc2nc(Nc3ccccc3)nc(Nc3ccccc3)n2)c1")
"f"
>>> class_name("O=C(/C=C/C12c3ccccc3C(c3ccccc31)C1C(=O)NC(=O)C12)c1cccs1 (stereo not given)")
"f"
>>> class_name("CN1CCN(c2ccc(Nc3ncc4[nH]c(=O)n(Cc5ccccc5N)c4n3)cc2)CC1")
"t"
>>> class_name("Cc1nc2ccccc2c(/C=C/c2ccc(Br)cc2)c1C(=O)/C=C/c1ccccc1")
"f"
>>> class_name("CC/C(=C(/c1ccc(Cl)cc1)c1ccc(OCCN2CCCC2)cc1)c1ccccc1")
"f"
>>> class_name("CCCCCCCCOC(=O)c1c(C)[nH]c(/C=C2\\N=C(c3ccc[nH]3)C=C2OC)c1C")
"f"
>>> class_name("O=c1c(Cc2ccc(F)cc2)cc(-c2ccccc2)nn1C/C(=N/O)c1ccccc1")
"f"
>>> class_name("Cc1cccc(CN(Nc2ccccc2)c2ccccc2)n1")
"t"
>>> class_name("CCOc1ccccc1NC(=O)CCC(=O)OC")
"t"
>>> class_name("COc1cc2c(cc1OC)CC[N+](CCC[N+](C)(C)C)=C2")
"t"

###

# Tested on: A498 renal
# test_method_notes: NCI-60 one-dose screen, 48 h
# test_context: 10 µM unless noted
This is part of a sample that, as a whole, favours compounds with a hit. Of some 83,000 tested, about 20% had one in any assay. The source made the active and inactive calls. How the source made its calls: active means growth percent below 10; inactive means the rest.
Outcome codes: true = active, false = inactive

>>> class_name("CSc1nc(N)c2c(n1)NC(c1ccccc1)C1CCc3ccccc3C1=N2 (stereo not given)")
"false"
>>> class_name("[2H]C([2H])([2H])Oc1ccc(/C=C/C(=O)/C=C(O)/C=C/c2ccc(OC([2H])([2H])[2H])c(OC([2H])([2H])[2H])c2)cc1OC([2H])([2H])[2H]")
"false"
>>> class_name("C#CC(F)(F)[C@]1(O)CCC2C3CCC4=CC(=O)CCC4=C3[C@@H](c3ccc(N(C)C)cc3)C[C@@]21C (stereo not given in full)")
"false"
>>> class_name("CCOC(=O)c1c(NC(=S)Nc2ccc([N+](=O)[O-])cc2)sc2c1CCCCC2")
"false"
>>> class_name("COc1cc(CNC(=O)CCCC/C=C/C(C)C)ccc1OCc1cn(-c2ccc(C(F)(F)F)cc2)nn1")
"false"
>>> class_name("CO[C@]12C=C/C(=C(/C(=O)OCc3cccnc3)C(=O)CCCCCCCC[C@]3(OC)C=C/C(=C(/C(=O)OCc4cccnc4)C(=O)CCCCCCCC1)O3)O2")
"true"
>>> class_name("CC(=O)O[C@H]1C[C@@]2(C)[C@@H](C[C@@H](O)[C@H]3[C@@]4(C)CC[C@H](N5CCCC5)[C@@H](C)[C@@H]4CC[C@@]32C)/C1=C(\\CCC=C(C)C)C(=O)O")
"false"
>>> class_name("c1ccc2c(-c3cnn4cc(-c5ccc(N6CCNCC6)cc5)cnc34)ccnc2c1")
"true"
>>> class_name("CS(=O)(=O)c1ccc(/C(=N/NC(N)=S)c2ccc(F)cc2)cc1")
"false"
>>> class_name("C#CCOc1ccc(C2=NN(CCCC)C3N=C(Cl)c4ncn(CCCC)c4N23)cc1OCC#C (stereo not given)")
"false"
>>> class_name("O=C(Nc1ncc(Cc2ccc(Cl)cc2)s1)C1=NCCCCN1")
"false"
>>> class_name("COc1cc2cc(Oc3ccc(NC(=O)Nc4ccc(Cl)c(Cl)c4)cc3)c(C)nc2cc1OCCN1CCCCC1")
"false"
>>> class_name("CCOc1ccc(N2C(=O)CCSC2=S)cc1")
"false"
>>> class_name("OC1CSSC1Cn1cnc2c(Nc3ccc(F)c(Cl)c3)ncnc21 (stereo not given)")
"false"
>>> class_name("C#CCOc1ccc(C2=NN(C)C3N=C(Cl)c4ncn(C)c4N23)cc1OCC#C (stereo not given)")
"false"
>>> class_name("C#C[C@]1(O)CC[C@H]2[C@@H]3CC=C4c5sc(-c6ccccc6)nc5CC[C@]4(C)[C@H]3CC[C@@]21C")
"false"
>>> class_name("Cn1ccnc1C(=O)/C=C/c1ccc(C(=O)Nc2ccccc2F)cc1")
"false"
>>> class_name("CCN(CC)CCN1C(=O)c2c(c(C)c3c(oc4cc(OC)ccc43)c2C)C1=O")
"false"
>>> class_name("CN1CCN(Cc2ccc(NC(=O)c3cncc(C#Cc4c(N)ncc5c(F)cccc45)c3)cc2C(F)(F)F)CC1")
"true"
>>> class_name("CCN(CC)c1ccc(/C=N/NC(=O)c2ccccc2Nc2ccnc(C(F)(F)F)c2)c(O)c1")
"false"
>>> class_name("CC(C)=CC(=O)C1C(=O)c2ccccc2C1=O")
"false"
>>> class_name("CCOC(=O)/C(=C\\c1ccccc1Cl)P(=O)(OCC)OCC")
"false"
>>> class_name("COc1cc(-c2c(-c3ccccc3)c[nH]c2C(=O)NCCCO)c(OC)c2c1OCO2")
"false"
>>> class_name("CC(=O)OCC(=O)O[C@@H]1C[C@]2(C(C)C)O[C@@]1(C)[C@@H]1CC[C@@H](C)[C@H]1[C@@H]2OC(=O)/C=C/c1ccccc1")
"true"
>>> class_name("CN(C)c1ccc(Cc2cc(-c3ccccc3)nn(C/C(=N/O)c3ccccc3)c2=O)cc1")
"true"
>>> class_name("C=CC(=O)Nc1ccc2ncnc(Nc3cccc(NS(=O)(=O)CCC)c3Cl)c2c1")
"true"
>>> class_name("Nc1ncc(-c2ccc3ncnc(N4CCc5cc(F)c(Cl)cc54)c3c2)cn1")
"true"
>>> class_name("Cc1nc2sc(C(=O)Nc3ccccc3)c(N)c2cc1C(O)c1ccccc1 (stereo not given)")
"true"
>>> class_name("O=C(N/N=C/c1ccccc1Cl)c1ccccc1Nc1ccnc(C(F)(F)F)c1")
"true"
>>> class_name("O=C(COc1ccc(/C=C2\\Oc3ccccc3C2=O)cc1)Nc1nccs1")
"false"
>>> class_name("CCOC(=O)CCC(=O)P(=O)(O)O")
"false"
>>> class_name("Oc1ccc(C(c2ccc(O)cc2)c2ccc(Cl)cn2)cc1")
"true"
>>> class_name("Cc1cc2nc(C(Cl)Cl)nc(-c3ccccc3)n2n1")
"false"
>>> class_name("O=C(NS(=O)(=O)c1ccccc1)n1cc(-c2ccncc2)c(-c2cc(O)cc(Cl)c2)n1")
"false"
>>> class_name("CCCC1Cc2cc(-n3nc(C)c4c3CC(C)(C)CC4=O)cc(NC3CCC(O)CC3)c2C(=O)N1 (stereo not given)")
"false"

###

# Tested on: NCI-H460 lung
# test_method_notes: NCI-60 one-dose screen, 48 h
# test_context: 10 µM unless noted
Compounds without any hit were thinned out: in the full panel of roughly 83,000, 20% have a hit. The source made the active and inactive calls. Rule for the calls: active = growth percent below 10; inactive = the rest.
Labels: active, inactive

>>> class_name("CCOC(=O)c1ccc2c(c1)c1c(C)c3cnccc3c(C)c1n2C")
"active"
>>> class_name("O=C1NC(=O)C(=Cc2cc(-c3ccc(Cl)cc3)n(-c3ccccc3)n2)C(=O)N1")
"inactive"
>>> class_name("O=C(/C=C/c1ccco1)c1ccc(Nc2ccnc3cc(Cl)ccc23)cc1")
"inactive"
>>> class_name("CC(Cc1cccc2ccccc12)C(N)=O (stereo not given)")
"inactive"
>>> class_name("NC(=N\\N=C/c1ccc(Cl)cc1Cl)/C(N)=N\\N=C/c1ccc(Cl)cc1Cl")
"inactive"
>>> class_name("CNC(=O)c1cc(Oc2cccc3nc(NC(=O)Nc4ccc(F)cc4F)ccc23)ccn1")
"inactive"
>>> class_name("COC12C=C/C(=C(/C(=O)OCc3ccccn3)C(=O)CCCCCCCCC3(OC)C=C/C(=C(/C(=O)OCc4ccccn4)C(=O)CCCCCCCC1)O3)O2")
"active"
>>> class_name("CCN(CC)CCCNc1cc(OC)cc2cccnc12")
"inactive"
>>> class_name("COc1cc(CNC(=O)CCCC/C=C/C(C)C)ccc1OCc1cn(-c2cccc([N+](=O)[O-])c2)nn1")
"inactive"
>>> class_name("Cc1c(Cl)cccc1NC(=O)c1sc2nc3c(cc2c1N)CCCC3")
"inactive"
